This collection of values is drawn from ChEMBL document CHEMBL2177100.

Tested on: NCI-H1975
Experiment: Cytotoxicity against human NCI-H1975 cells incubated for 72 hrs by MTT assay
Assay type: functional, cell-based
Conditions: NCI-H1975, 72 h
We label by threshold. Values of IC50 strictly beneath 2000 nM are 1. Values of 2000 nM and up are 0.

Answer whether the compound CN1CCN(c2ccc(Nc3ncc4nc(Nc5cccc([N+](=O)[O-])c5)n(C5CCCC5)c4n3)cc2)CC1 has IC50 strictly less than 2000 nM
1

Answer whether the compound CN1CCN(c2ccc(Nc3ncc4nc(Nc5ccc(Br)cc5F)n(C5CCCC5)c4n3)cc2)CC1 has IC50 strictly less than 2000 nM
1

Answer whether the compound c1ccc(Nc2nc3cnc(Nc4ccc(N5CCOCC5)cc4)nc3n2C2CCCC2)cc1 has IC50 strictly less than 2000 nM
0

Answer whether the compound CN1CCN(c2ccc(Nc3ncc4nc(Nc5ccc(Br)cc5)n(C5CCCC5)c4n3)cc2)CC1 has IC50 strictly less than 2000 nM
0

Answer whether the compound CN1CCN(c2ccc(Nc3ncc4nc(Nc5ccccc5)n(-c5ccccc5)c4n3)cc2)CC1 has IC50 strictly less than 2000 nM
1

====

Biological target: Epidermal growth factor receptor (Homo sapiens, UniProt P00533, L858R)
Sequence (P00533 25-1210 L858R limits assumed): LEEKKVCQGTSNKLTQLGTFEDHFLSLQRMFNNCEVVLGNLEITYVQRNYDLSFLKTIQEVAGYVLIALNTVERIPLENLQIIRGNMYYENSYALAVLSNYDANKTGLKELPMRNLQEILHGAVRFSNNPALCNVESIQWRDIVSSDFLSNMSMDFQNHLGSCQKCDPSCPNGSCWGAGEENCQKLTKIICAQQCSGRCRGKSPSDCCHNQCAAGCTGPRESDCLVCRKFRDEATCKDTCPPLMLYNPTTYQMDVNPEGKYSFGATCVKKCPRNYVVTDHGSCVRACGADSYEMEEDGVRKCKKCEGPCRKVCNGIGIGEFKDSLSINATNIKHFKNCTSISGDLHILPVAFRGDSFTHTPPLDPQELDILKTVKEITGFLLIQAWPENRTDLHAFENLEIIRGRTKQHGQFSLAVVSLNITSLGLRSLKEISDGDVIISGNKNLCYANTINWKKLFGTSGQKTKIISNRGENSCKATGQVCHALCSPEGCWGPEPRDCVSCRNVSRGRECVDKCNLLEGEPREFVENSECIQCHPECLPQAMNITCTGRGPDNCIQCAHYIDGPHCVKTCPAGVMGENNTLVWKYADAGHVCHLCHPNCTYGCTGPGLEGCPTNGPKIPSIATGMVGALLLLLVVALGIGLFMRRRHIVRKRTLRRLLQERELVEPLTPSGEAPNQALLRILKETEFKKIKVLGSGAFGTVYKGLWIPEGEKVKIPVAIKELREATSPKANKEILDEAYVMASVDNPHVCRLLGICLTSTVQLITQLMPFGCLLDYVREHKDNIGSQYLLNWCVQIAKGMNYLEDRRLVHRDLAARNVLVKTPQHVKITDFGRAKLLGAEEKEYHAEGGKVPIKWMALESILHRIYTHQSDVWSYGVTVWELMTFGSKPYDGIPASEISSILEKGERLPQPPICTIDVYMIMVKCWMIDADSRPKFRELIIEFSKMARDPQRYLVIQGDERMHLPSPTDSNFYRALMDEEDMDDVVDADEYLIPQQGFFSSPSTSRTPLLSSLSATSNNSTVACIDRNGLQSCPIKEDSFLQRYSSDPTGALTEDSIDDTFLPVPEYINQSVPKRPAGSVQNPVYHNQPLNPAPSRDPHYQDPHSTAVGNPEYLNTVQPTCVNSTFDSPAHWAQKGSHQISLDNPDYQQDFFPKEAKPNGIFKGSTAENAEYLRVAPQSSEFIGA
Assay: Inhibition of EGFR L858R mutant
Format: protein assay
Property label: IC50 (nM)
Record the value in nM, omitting the unit from your answer.

Query IC50 on Epidermal growth factor receptor (Homo sapiens, UniProt P00533, L858R) for CN1CCN(c2ccc(Nc3ncc4nc(Nc5ccccc5)[nH]c4n3)cc2)CC1
98

====

Test system: NCI-H292
Assay: Cytotoxicity against human NCI-H292 cells incubated for 72 hrs by MTT assay
Format: functional, cell-based
Conditions: NCI-H292, 72 h
Property label: pIC50
By convention, pIC50 is the negative base-10 log of a molar concentration.

For the compound shown here, CN1CCN(c2ccc(Nc3ncc4nc(Nc5ccccc5)n(C5CCCC5)c4n3)cc2)CC1 , give the reported pIC50.
7.35

====

Test system: HCT-116
Experiment: Cytotoxicity against human HCT116 cells incubated for 72 hrs by MTT assay
Assay type: functional, cell-based
Settings: HCT-116, 72 h
Property label: pIC50
By convention, pIC50 is the negative base-10 log of a molar concentration.

For the compound shown here, CN1CCN(c2ccc(Nc3ncc4nc(Nc5ccccc5)n(C5CCCC5)c4n3)cc2)CC1 , give the reported pIC50.
5.52

====

Experiment: Tmax in Sprague-Dawley rat at 20 mg/kg, po
Format: ADME, organism-based
Parameters: dose 20 mg/kg, route oral
Settings: in vivo
Property label: Tmax (h)
Record the value in h, omitting the unit from your answer.

For the compound shown here, CN1CCN(c2ccc(Nc3ncc4nc(Nc5ccccc5)n(C5CCCC5)c4n3)cc2)CC1 , give the reported Tmax.
1

====

Experiment: Binding affinity to […] EGFR […] mutant by KINOMEscan kinase binding assay
Property label: pKd
By convention, pKd is the negative base-10 log of a molar concentration.

For the molecule shown here, CN1CCN(c2ccc(Nc3ncc4nc(Nc5ccccc5)n(C5CCCC5)c4n3)cc2)CC1 , give the reported pKd.
9.30

====

Assay: Binding affinity to […] EGFR 747-E749del, A750P mutant by KINOMEscan kinase binding assay
Property label: Kd (nM)
Record the value in nM, omitting the unit from your answer.

For the molecule shown here, CN1CCN(c2ccc(Nc3ncc4nc(Nc5ccccc5)n(C5CCCC5)c4n3)cc2)CC1 , give the reported Kd.
0.4
